# credit: ChEMBL document CHEMBL1155457

# assay.summary: Volume of distribution at steady state in dog at 0.5 mg/kg, iv
# Format: ADME, organism-based, Canis lupus familiaris
# Parameters: dose 0.5 mg/kg, route intravenous
# condition.context: in vivo, read-out: Vdss
The following molecules are shown together with reported Vd values.
// return numeric value only (unit: L/kg, not printed)

smiles.data	Vd / L/kg
Cc1ccc(-n2nccn2)c(C(=O)N2CCN(c3nc4cc(Cl)ccc4o3)CC[C@H]2C)c1	0.8

Kindly review the next molecule as well.
Input line: Using known records, supply Vd for `Cc1ccc(-n2nccn2)c(C(=O)N2CCCN(c3ncc4ccccc4n3)CC2)c1`
Output line: 0.86

====

# assay.summary: Plasma protein binding in human
# Format: ADME, cell-free
# condition.context: read-out: PPB
measured.endpoint: fraction unbound
Returns: the value as a bare number; no unit string appended.

Input line: Using known records, supply fraction unbound for `Cc1ccc(-n2nccn2)c(C(=O)N2CCN(c3nc4cc(Cl)ccc4o3)CC[C@H]2C)c1`
Output line: 0.01
